Test system: KHOS-NP
Experiment: relative viability vs DMSO control (72 h) (fraction); higher = more viable cells
Conditions: 10 µM
Reported Property: relative viability

Known results for molecules:
O=C(Nc1ccc(OC(F)(F)Cl)cc1)c1cnc(N2CC[C@@H](O)C2)c(-c2cc[nH]n2)c1 : 0.695
CC1(COc2ccc3c(c2)ncn3-c2ccc3cccc(N4CCC(N)CC4)c3n2)COC1 : 0.511

// below: relative viability requested for another molecule
Lookup: I would be grateful if you could share the reported relative viability for COc1cc(CCc2cc(NC(=O)c3ccc(N4CC(C)NC(C)C4)cc3)n[nH]2)cc(OC)c1 (stereo not drawn) .
Found: 0.927

====

System: SYO-1
Assay: relative viability vs DMSO control (72 h) (fraction); higher = more viable cells
Settings: 10 µM
Below is a list of entries, each paired with its recorded relative viability value.
Please reply with the number alone, leaving off any unit.

Known results for molecules:
CC#CC(=O)N1CCC[C@H]1c1nc(-c2ccc(C(=O)Nc3ccccn3)cc2)c2c(N)nccn12 [Acalabrutinib] : 0.898
O=c1sn(-c2cccc3ccccc23)c(=O)n1Cc1ccccc1 [Tideglusib] : 0.891

// below: relative viability requested for another molecule
Lookup: # value lookup — system SYO-1, readout relative viability, item CNC(=O)c1nnc(NC(=O)C2CC2)cc1Nc1cccc(-c2ncn(C)n2)c1OC
Found: 0.918

====

Below is a list of entries, each paired with its recorded relative viability value.
Tested on: KHOS-240S
Assay: relative viability vs DMSO control (72 h) (fraction); higher = more viable cells
Conditions: 0.04115 µM
Please reply with the number alone, leaving off any unit.

Cc1ccc(Nc2nccc(N(C)c3ccc4c(C)n(C)nc4c3)n2)cc1S(N)(=O)=O : 1.02
Clc1ccc(Nc2nnc(Cc3ccncc3)c3ccccc23)cc1 : 1.01

// below: relative viability requested for another molecule
Lookup: I would be grateful if you could share the reported relative viability for O=C(Nc1ccc(OC(F)(F)Cl)cc1)c1cnc(N2CC[C@@H](O)C2)c(-c2cc[nH]n2)c1 .
Found: 1.01

====

System: MES-SA
Assay: relative viability vs DMSO control (72 h) (fraction); higher = more viable cells
Details: 0.01372 µM
Reported Property: relative viability
Please reply with the number alone, leaving off any unit.

Cc1cc2c(F)c(Oc3ncnn4cc(OC[C@@H](C)O)c(C)c34)ccc2[nH]1 : 0.919
O=c1sn(-c2cccc3ccccc23)c(=O)n1Cc1ccccc1 : 0.962
Cn1cc(C2=C(c3cn(C4CCN(Cc5ccccn5)CC4)c4ccccc34)C(=O)NC2=O)c2ccccc21 : 0.959
CNC(=O)c1ccccc1Sc1ccc2c(/C=C/c3ccccn3)n[nH]c2c1 : 0.967
CC1(C)CC=C(c2nc(C3CC(C)(C)OC(C)(C)C3)ccc2NC(=O)c2nc(C#N)c[nH]2)CC1 : 0.942
CC1(COc2ccc3c(c2)ncn3-c2ccc3cccc(N4CCC(N)CC4)c3n2)COC1 : 0.953

Lookup: I would be grateful if you could share the reported relative viability for COc1cc(OC)c(/C=C/S(=O)(=O)Cc2ccc(OC)c(NCC(=O)O)c2)c(OC)c1 .
Found: 0.918

====

System: SW982
Experiment: relative viability vs DMSO control (72 h) (fraction); higher = more viable cells
Conditions: 0.04115 µM
Reported Property: relative viability
Please reply with the number alone, leaving off any unit.

COc1cc(CCc2cc(NC(=O)c3ccc(N4CC(C)NC(C)C4)cc3)n[nH]2)cc(OC)c1 (centres undefined) : 1
O=S(=O)(c1cccc2cnccc12)N1CCCNCC1 : 0.976
CNC(=O)c1ccccc1Sc1ccc2c(/C=C/c3ccccn3)n[nH]c2c1 : 1.01

// below: relative viability requested for another molecule
Lookup: I would be grateful if you could share the reported relative viability for CN1CC[C@@H](NC(=O)Nc2ccc(C#N)cc2)C[C@@H]1c1nc2ccccc2[nH]1 .
Found: 0.971

These data points were gathered from the supplement of paper PMC10883282.
